Biological target: mGluR2 receptor (metabotropic glutamate receptor 2) (Homo sapiens, UniProt Q14416)
Construct: expressed in transfected cells
Sequence (Q14416 19-872, species assumed): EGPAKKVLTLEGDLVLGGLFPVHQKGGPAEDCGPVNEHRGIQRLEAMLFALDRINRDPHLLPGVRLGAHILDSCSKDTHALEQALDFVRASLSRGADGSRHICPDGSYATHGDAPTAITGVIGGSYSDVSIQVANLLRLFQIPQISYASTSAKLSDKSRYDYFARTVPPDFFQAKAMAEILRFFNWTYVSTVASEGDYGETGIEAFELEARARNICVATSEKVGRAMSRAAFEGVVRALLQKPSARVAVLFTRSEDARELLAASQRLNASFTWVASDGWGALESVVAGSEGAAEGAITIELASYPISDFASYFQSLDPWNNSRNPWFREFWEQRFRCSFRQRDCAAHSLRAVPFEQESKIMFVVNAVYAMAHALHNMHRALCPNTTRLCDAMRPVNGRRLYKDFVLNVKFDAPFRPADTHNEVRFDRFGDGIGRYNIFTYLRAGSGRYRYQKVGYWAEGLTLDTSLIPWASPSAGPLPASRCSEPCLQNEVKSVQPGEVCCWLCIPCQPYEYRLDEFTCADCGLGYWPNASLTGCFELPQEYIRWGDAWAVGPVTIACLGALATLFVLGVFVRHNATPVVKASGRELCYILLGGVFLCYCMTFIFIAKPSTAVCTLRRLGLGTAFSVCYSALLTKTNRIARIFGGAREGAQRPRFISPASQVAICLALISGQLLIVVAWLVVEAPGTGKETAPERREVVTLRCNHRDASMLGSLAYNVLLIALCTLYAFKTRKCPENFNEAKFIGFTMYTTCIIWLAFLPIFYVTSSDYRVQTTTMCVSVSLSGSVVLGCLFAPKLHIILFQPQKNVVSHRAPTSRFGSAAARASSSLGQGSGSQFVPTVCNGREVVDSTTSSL
Experiment: mGluR2 Potentiator Screen, FLIPR, EC10-EC20 glutamate challenge
Format: cell-based
Settings: read-out: EC50
metric: EC50 (nM)

INSERT INTO measurements (molecule, unitname, censoringqualifier, observedmeasurement) VALUES
  ('Cn1c(CN2CCC(c3ccccc3C(F)(F)F)CC2)nc2ccccc21', 'nM', '=', 109),
  ('Cn1c(CN2CCC3(CC2)CN(CC2CCCO2)c2ccc(Cl)cc23)nc2ccccc21 (stereo not drawn)', 'nM', '=', 6650),
  ('CCCN1CC2(CCN(Cc3nc4ccccc4n3C)CC2)c2cc(F)ccc21', 'nM', '>', 7890),
  ('Cn1c(CN2CCC(c3cc(C(F)(F)F)ccc3F)CC2)nc2cc(F)c(F)cc21', 'nM', '=', 463),
  ('Cn1c(CN2CCC(c3cc(C(F)(F)F)ccc3F)CC2)nc2cc(F)ccc21', 'nM', '=', 348),
  ('CCOc1ccc(Cl)cc1C1CCN(Cc2nc3ccccc3n2CCF)CC1', 'nM', '=', 210),
  ('COc1ccc(Cl)cc1C1CCN(Cc2nc3ccccc3n2C2CC2)CC1', 'nM', '=', 357),
  ('CC1=C(c2ccccc2)C(C)CN(Cc2nc3ccccc3n2C)C1 (stereo not drawn)', 'nM', '=', 2850),
  ('Cn1c(CN2CCC(c3ccccc3F)CC2)nc2cccc(C#N)c21', 'nM', '=', 31.4),
  ('Cn1c(CN2CCC(O)(c3ccc(Cl)c(C(F)(F)F)c3)CC2)nc2ccccc21', 'nM', '=', 4350),
  ('COc1ccccc1C1CCN(Cc2nc3ccccc3n2CF)CC1C (stereo not drawn)', 'nM', '=', 734),
  ('COc1ccccc1C1CCN(Cc2nc3ccccc3n2C)CC1', 'nM', '=', 77.1),
  ('COCCn1c(CN2CCC(c3cc(Cl)ccc3OC)CC2)nc2ccccc21', 'nM', '=', 209),
  ('Cn1c(CN2CCC(c3ccccc3OCC3CCC3)CC2)nc2ccccc21', 'nM', '=', 744),
  ('Cn1c(CN2CCC(c3ccccc3)CC2)nc2ccccc21', 'nM', '=', 212),
  ('Cc1noc(C)c1C(=O)N1CC2(CCN(Cc3nc4ccccc4n3C)CC2)c2cc(Cl)ccc21', 'nM', '=', 2830),
  ('Cn1c(CN2CCC3(CC2)CN(Cc2cccnc2)c2ccccc23)nc2ccccc21', 'nM', '>', 9880),
  ('FCCn1c(CN2CCC(c3cc(C(F)(F)F)ccc3F)CC2)nc2ccccc21', 'nM', '=', 463),
  ('COc1ccccc1C1CCN(Cc2nc3cc(Cl)ccc3n2C)CC1', 'nM', '=', 49.3),
  ('COc1cc(C(F)(F)F)ccc1C1CCN(Cc2nc3cc(F)ccc3n2C)CC1', 'nM', '=', 34.9),
  ('Cn1c(CN2CCC(c3ccccc3F)CC2)nc2cccc(Br)c21', 'nM', '=', 60.1),
  ('COc1ccccc1C1CCN(Cc2nc3ccccc3n2CF)CC1', 'nM', '=', 62.4),
  ('Cn1c(CN2CCC(c3ccccc3F)CC2)nc2cc(F)ccc21 [compound 352]', 'nM', '=', 88.5),
  ('FCCn1c(CN2CCC(c3ccccc3F)CC2)nc2ccccc21', 'nM', '=', 217),
  ('COc1ccccc1C1CCN(Cc2nc3cc(C)ccc3n2C)CC1', 'nM', '=', 41.6),
  ('CCc1ccc(C2CCN(Cc3nc4ccccc4n3C)CC2)cc1', 'nM', '=', 89.2),
  ('COc1ccccc1C1CCN(Cc2nc3c(C#N)cccc3n2C)CC1', 'nM', '=', 3350),
  ('COCn1c(CN2CCC(c3ccc(C(F)(F)F)cc3OC)CC2)nc2ccccc21', 'nM', '=', 471),
  ('Cn1c(CN2CCCC(c3ccccc3F)CC2)nc2ccccc21 (stereo not drawn)', 'nM', '=', 1590),
  ('Cc1nnsc1C(=O)N1CC2(CCN(Cc3nc4ccccc4n3C)CC2)c2cc(Cl)ccc21', 'nM', '=', 1350),
  ('COc1cc(C(F)(F)F)ccc1C1CCN(Cc2nc3cc(F)c(F)cc3n2C)CC1', 'nM', '=', 266),
  ('Cc1ccc2c(c1)C1(CCN(Cc3nc4ccccc4n3C)CC1)CN2C', 'nM', '=', 1670),
  ('Cn1c(CN2CCC(c3ccccc3O)CC2)nc2ccccc21', 'nM', '=', 1440),
  ('Cn1c(CN2CCC(F)(c3ccc(Cl)cc3)CC2)nc2ccccc21', 'nM', '=', 257),
  ('FCCn1c(CN2CCC(c3ccc(C(F)(F)F)cc3)CC2)nc2ccccc21', 'nM', '=', 301),
  ('CC(C)OCCOc1ccccc1C1CCN(Cc2nc3ccccc3n2C)CC1', 'nM', '=', 621);

* * *

Biological target: mGluR2 receptor (metabotropic glutamate receptor 2) (Homo sapiens)
Construct: expressed in transfected cells
Test: mGluR2 Potentiator Screen, FLIPR, EC10-EC20 glutamate challenge
Type: cell-based
Conditions: mGluR2 potentiator screen, Table 7; read-out: EC50
Method: Procedure for mGluR2 Potentiator Screen NLB Methods EC10-EC20 Challenge Cell Culture and Plating: Cells used for this screen are HEK cells stably transfected with the mGluR2 receptor (metabotropic glutamate receptor 2) and the Gα15 G protein. […] Results are analyzed by dividing the peak fluorescent value of the FLIPR response by the […] to achieve a ratio response. The ratios are then analyzed by curve fitting programs. […]
metric: EC50 (nM)

INSERT INTO results (compound, targetsystem, metric, unitname, observedmeasurement) VALUES
  ('FCn1c(CN2CCC(c3cc(Cl)ccc3OCC3CCOC3)CC2)nc2ccccc21 (stereo not shown)', 'mGluR2 receptor (metabotropic glutamate receptor 2) (Homo sapiens)', 'EC50', 'nM', 3610),
  ('CC(C)COc1ccc(Cl)cc1C1CCN(Cc2nc3ccccc3n2CCF)CC1', 'mGluR2 receptor (metabotropic glutamate receptor 2) (Homo sapiens)', 'EC50', 'nM', 2110),
  ('COCCn1c(CN2CCC(c3cc(Cl)ccc3OCC3CCCCO3)CC2)nc2ccccc21 (stereo not shown)', 'mGluR2 receptor (metabotropic glutamate receptor 2) (Homo sapiens)', 'EC50', 'nM', 1550),
  ('CCCOc1ccc(Cl)cc1C1CCN(Cc2nc3ccccc3n2C)CC1', 'mGluR2 receptor (metabotropic glutamate receptor 2) (Homo sapiens)', 'EC50', 'nM', 216),
  ('Cn1c(CN2CCC(c3cc(Cl)ccc3OCCC3CC3)CC2)nc2ccccc21', 'mGluR2 receptor (metabotropic glutamate receptor 2) (Homo sapiens)', 'EC50', 'nM', 153),
  ('COC(=O)[C@H]1CN(Cc2nc3ccccc3n2C)C[C@@H]1c1ccc(C(F)(F)F)cc1', 'mGluR2 receptor (metabotropic glutamate receptor 2) (Homo sapiens)', 'EC50', 'nM', 4790),
  ('CC[C@H](C)COc1ccc(Cl)cc1C1CCN(Cc2nc3ccccc3n2C)CC1', 'mGluR2 receptor (metabotropic glutamate receptor 2) (Homo sapiens)', 'EC50', 'nM', 447),
  ('COCCn1c(CN2CCC(c3cc(Cl)ccc3OCC3CCC3)CC2)nc2ccccc21', 'mGluR2 receptor (metabotropic glutamate receptor 2) (Homo sapiens)', 'EC50', 'nM', 719),
  ('COCCn1c(CN2CCC(c3cc(Cl)ccc3OCC3CCCO3)CC2)nc2ccccc21 (stereo not shown)', 'mGluR2 receptor (metabotropic glutamate receptor 2) (Homo sapiens)', 'EC50', 'nM', 1700),
  ('Clc1ccc(OCC2CCOC2)c(C2CCN(Cc3nc4ccccc4n3C3CC3)CC2)c1 (stereo not shown)', 'mGluR2 receptor (metabotropic glutamate receptor 2) (Homo sapiens)', 'EC50', 'nM', 2880),
  ('COc1cccc2c1CC[C@H]1CN(Cc3nc4ccccc4n3C)CC[C@H]21', 'mGluR2 receptor (metabotropic glutamate receptor 2) (Homo sapiens)', 'EC50', 'nM', 7550),
  ('COC(=O)[C@H]1CN(Cc2nc3ccccc3n2C)C[C@@H]1c1ccc(Cl)cc1', 'mGluR2 receptor (metabotropic glutamate receptor 2) (Homo sapiens)', 'EC50', 'nM', 8550),
  ('FCn1c(CN2CCC(c3cc(Cl)ccc3OCC3CCCCO3)CC2)nc2ccccc21 (stereo not shown)', 'mGluR2 receptor (metabotropic glutamate receptor 2) (Homo sapiens)', 'EC50', 'nM', 1570);

* * *

Biological target: mGluR2 receptor (metabotropic glutamate receptor 2) (Homo sapiens, UniProt Q14416)
Construct: expressed in transfected cells
Experiment: mGluR2 Potentiator Screen, FLIPR, EC10-EC20 glutamate challenge
Format: cell-based
Conditions: mGluR2 potentiator screen, Table 7; read-out: EC50
pEC50: −log10 of the molar value.
Reported pEC50 values follow for various compounds
metric: pEC50

INSERT INTO results (compound, observedmeasurement) VALUES
  ('Cn1c(CN2CCC(c3ccccc3Cl)CC2)nc2ccccc21', 6.84),
  ('CCCOc1ccc(Cl)cc1C1CCN(Cc2nc3ccccc3n2CCF)CC1', 6.61),
  ('Cn1c(CN2CCC(c3ccc(F)cc3)C2)nc2ccccc21 (stereo not drawn)', 5.78),
  ('FCn1c(CN2CCC(c3cc(Cl)ccc3OCC3CCCO3)CC2)nc2ccccc21 (stereo not drawn)', 5.38),
  ('CC1CC1COc1ccc(Cl)cc1C1CCN(Cc2nc3ccccc3n2CF)CC1 (stereo not drawn)', 5.49),
  ('COCCn1c(CN2CCC(c3cc(Cl)ccc3OCC3CCOC3)CC2)nc2ccccc21 (stereo not drawn)', 5.47),
  ('Cn1c(CN2CCC(c3ccc(C(F)(F)F)cc3)CC2)nc2c(Br)cccc21', 6.08),
  ('CCCCOc1ccc(Cl)cc1C1CCN(Cc2nc3ccccc3n2C)CC1', 6.86),
  ('CC(C)COc1ccc(Cl)cc1C1CCN(Cc2nc3ccccc3n2CF)CC1', 5.46),
  ('COc1ccc(OC)c(C2CCN(Cc3nc4ccccc4n3C)C2)c1 (stereo not drawn)', 6.55),
  ('FCCn1c(CN2CCC(c3cc(Cl)ccc3OCC3CCC3)CC2)nc2ccccc21', 5.86),
  ('Cn1c(CN2CCC(Cc3ccccc3)C2)nc2ccccc21 (stereo not drawn)', 6.06),
  ('CCCCN1CC2(CCN(Cc3nc4ccccc4n3C)CC2)c2cc(C)cc(C)c21', 5.79),
  ('CC(C)COc1ccc(Cl)cc1C1CCN(Cc2nc3ccccc3n2C2CC2)CC1', 5.76),
  ('COCCn1c(CN2CCC(c3cc(Cl)ccc3OCC(C)C)CC2)nc2ccccc21', 5.52),
  ('COCCn1c(CN2CCC(c3cc(Cl)ccc3OCC3CC3C)CC2)nc2ccccc21 (stereo not drawn)', 6.21),
  ('CC1(COc2ccc(Cl)cc2C2CCN(Cc3nc4ccccc4n3CCF)CC2)COC1', 4.98),
  ('COc1ccc(OC)c(C2CCN(Cc3nc4ccccc4n3C)CC2)c1', 6.03);
